Each record here notes measured self-cleavage.
B1: LINE1-full (parent)
chain: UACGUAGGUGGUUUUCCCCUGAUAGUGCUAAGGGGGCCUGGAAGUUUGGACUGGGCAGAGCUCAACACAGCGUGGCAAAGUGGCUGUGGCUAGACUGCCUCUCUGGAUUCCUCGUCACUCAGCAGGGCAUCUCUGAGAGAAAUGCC

# Variants of: B1
# PROCEDURE TEXT: self-cleavage, relative activity (ratio to wild type); higher = more cleavage; in vitro, sequencing; the parent is a self-cleaving ribozyme
Respond with the number and no other words.

{"MUTANT NAME": "U20G C61U", "MEASURE NAME": "self-cleavage", "VALUE REPORTED": 0.09}
{"MUTANT NAME": "U20A U26A", "MEASURE NAME": "self-cleavage", "VALUE REPORTED": 1.23}
{"MUTANT NAME": "G33C", "MEASURE NAME": "self-cleavage", "VALUE REPORTED": 1.17}
{"MUTANT NAME": "G33U U87C", "MEASURE NAME": "self-cleavage", "VALUE REPORTED": 0.09}
{"MUTANT NAME": "A50C A107G", "MEASURE NAME": "self-cleavage", "VALUE REPORTED": 1.53}
{"MUTANT NAME": "U91A U100A", "MEASURE NAME": "self-cleavage", "VALUE REPORTED": 0.56}
{"MUTANT NAME": "C51U C90A", "MEASURE NAME": "self-cleavage", "VALUE REPORTED": 0.01}
{"MUTANT NAME": "A30C C113U", "MEASURE NAME": "self-cleavage", "VALUE REPORTED": 1.32}
{"MUTANT NAME": "G122C U134C", "MEASURE NAME": "self-cleavage", "VALUE REPORTED": 1.68}
{"MUTANT NAME": "C18U A117G", "MEASURE NAME": "self-cleavage", "VALUE REPORTED": 1.72}

Asked: # input variant: U15C G35A ; wanted: its self-cleavage
Given back: 1.41

Asked: # input variant: U45A G105A ; wanted: its self-cleavage
Given back: 1.56

Asked: # input variant: U23C A142G ; wanted: its self-cleavage
Given back: 1.61

Asked: # input variant: A69G A142G ; wanted: its self-cleavage
Given back: 0.5

Asked: # input variant: C28U U96A ; wanted: its self-cleavage
Given back: 0.06

Asked: # input variant: G21U G35A ; wanted: its self-cleavage
Given back: 1.36

Asked: # input variant: G8U C56U ; wanted: its self-cleavage
Given back: 0.28

Asked: # input variant: U85C A117U ; wanted: its self-cleavage
Given back: 0.19

Asked: # input variant: A79G U132C ; wanted: its self-cleavage
Given back: 1.43

Asked: # input variant: C95U A121G ; wanted: its self-cleavage
Given back: 0.33

Asked: # input variant: G7A G75A ; wanted: its self-cleavage
Given back: 0.95

Asked: # input variant: A57U U62A ; wanted: its self-cleavage
Given back: 0.03

Asked: # input variant: G10A C90U ; wanted: its self-cleavage
Given back: 0.06

Asked: # input variant: U26A A79G ; wanted: its self-cleavage
Given back: 0.75

Hey, just so you know, these numbers are from the RNAGym collection of RNA variant scans (doi:10.7554/elife.90254).
